study_system: Phosphatidylinositol 4,5-bisphosphate 3-kinase catalytic subunit gamma isoform (Homo sapiens)
Sequence (P48736 whole entry, canonical isoform): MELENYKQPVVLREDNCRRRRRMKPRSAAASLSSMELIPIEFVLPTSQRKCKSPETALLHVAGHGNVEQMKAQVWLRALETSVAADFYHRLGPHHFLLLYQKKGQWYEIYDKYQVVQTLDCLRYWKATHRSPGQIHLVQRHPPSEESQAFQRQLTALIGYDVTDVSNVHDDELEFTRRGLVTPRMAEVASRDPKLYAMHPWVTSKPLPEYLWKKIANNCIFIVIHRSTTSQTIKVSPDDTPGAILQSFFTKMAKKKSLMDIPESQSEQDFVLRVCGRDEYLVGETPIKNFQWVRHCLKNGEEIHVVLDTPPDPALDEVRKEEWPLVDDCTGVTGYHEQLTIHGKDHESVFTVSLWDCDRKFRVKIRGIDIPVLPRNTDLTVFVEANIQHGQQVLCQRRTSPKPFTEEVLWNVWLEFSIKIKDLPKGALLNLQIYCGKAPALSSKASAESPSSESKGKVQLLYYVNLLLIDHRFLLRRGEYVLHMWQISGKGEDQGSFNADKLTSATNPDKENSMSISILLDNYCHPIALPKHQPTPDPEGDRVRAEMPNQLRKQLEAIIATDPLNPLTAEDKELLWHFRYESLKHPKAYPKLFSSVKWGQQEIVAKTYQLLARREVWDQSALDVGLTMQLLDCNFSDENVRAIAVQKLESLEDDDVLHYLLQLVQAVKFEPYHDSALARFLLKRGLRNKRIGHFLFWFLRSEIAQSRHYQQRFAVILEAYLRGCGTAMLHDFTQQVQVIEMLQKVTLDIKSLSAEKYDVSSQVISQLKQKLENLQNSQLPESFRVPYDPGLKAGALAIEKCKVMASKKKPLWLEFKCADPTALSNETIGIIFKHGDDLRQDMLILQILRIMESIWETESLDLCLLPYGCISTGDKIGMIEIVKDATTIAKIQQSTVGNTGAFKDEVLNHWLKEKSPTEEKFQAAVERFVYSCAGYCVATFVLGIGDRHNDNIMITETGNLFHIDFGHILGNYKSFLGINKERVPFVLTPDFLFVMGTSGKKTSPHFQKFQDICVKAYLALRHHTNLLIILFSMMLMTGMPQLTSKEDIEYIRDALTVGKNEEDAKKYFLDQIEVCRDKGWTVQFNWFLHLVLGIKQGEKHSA
measurement_description: Inhibition of PI3Kgamma (unknown origin)
pIC50: −log10 of the molar value.
measured_endpoint: pIC50

INSERT INTO assay_data (sample_smiles, measured_endpoint, measurement) VALUES
  ('Cc1c(C(=O)N2CCOc3ccc(-c4ccc(N)nc4)cc3C2)ccc(S(C)(=O)=O)c1F', 'pIC50', '< 5.30');

----------
measurement_description: Drug uptake in tumor of athymic mouse xenografted with human MCF7 cells at 100 mg/kg, po after 4 hrs
Format: ADME, organism-based, Neoplasm
Parameters: dose 100 mg/kg, route oral
setup_conditions: read-out: Drug uptake
measured_endpoint: concentration at 4 h (µM)

INSERT INTO assay_data (sample_smiles, measurement_unit, measurement) VALUES
  ('Cc1c(C(=O)N2CCOc3ccc(-c4ccc(N)nc4)cc3C2)ccc(S(C)(=O)=O)c1F', 'µM', 35.9);

----------
measurement_description: Tmax in CD rat at 3 mg/kg, po
Format: ADME, organism-based
Parameters: dose 3 mg/kg, route oral
setup_conditions: in vivo
measured_endpoint: Tmax (min)

INSERT INTO results (sample_smiles, measured_endpoint, measurement) VALUES
  ('Cc1c(C(=O)N2CCOc3ccc(-c4ccc(N)nc4)cc3C2)ccc(S(C)(=O)=O)c1F', 'Tmax', 30);

----------
study_system: Cytochrome P450 2D6 (Homo sapiens)
Sequence (P10635 whole entry): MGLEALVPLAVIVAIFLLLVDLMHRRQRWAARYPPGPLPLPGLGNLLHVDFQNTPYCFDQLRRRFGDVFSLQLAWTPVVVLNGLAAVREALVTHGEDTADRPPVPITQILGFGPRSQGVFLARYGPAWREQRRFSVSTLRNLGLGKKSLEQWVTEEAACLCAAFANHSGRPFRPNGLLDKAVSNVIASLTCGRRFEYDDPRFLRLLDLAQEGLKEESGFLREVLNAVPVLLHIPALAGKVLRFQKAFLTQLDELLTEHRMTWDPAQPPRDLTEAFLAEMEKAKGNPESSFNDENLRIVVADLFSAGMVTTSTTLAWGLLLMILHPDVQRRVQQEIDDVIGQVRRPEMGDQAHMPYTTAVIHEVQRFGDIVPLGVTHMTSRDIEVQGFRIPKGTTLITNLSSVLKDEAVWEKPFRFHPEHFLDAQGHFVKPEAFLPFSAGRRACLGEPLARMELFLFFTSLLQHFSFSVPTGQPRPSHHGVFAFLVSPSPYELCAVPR
measurement_description: Inhibition of CYP2D6 (unknown origin)
Format: ADME
# INH per record follows
measured_endpoint: INH (µM)

INSERT INTO results (sample_smiles, operator, measurement) VALUES
  ('Cc1c(C(=O)N2CCOc3ccc(-c4ccc5nc[nH]c5c4)cc3C2)ccc(S(C)(=O)=O)c1F', '=', 9.6),
  ('Cc1c(C(=O)N2CCOc3ccc(-c4ccc(N)nc4)cc3C2)ccc(S(C)(=O)=O)c1F', '>', 20),
  ('NS(=O)(=O)c1ccc(C(=O)N2CCOc3ccc(-c4ccc5nc[nH]c5c4)cc3C2)cc1', '=', 4.3),
  ('CCc1c(C(=O)N2CCOc3ccc(-c4ccc5nc[nH]c5c4)cc3C2)ccc(S(C)(=O)=O)c1F', '=', 11.5),
  ('CS(=O)(=O)c1ccc(C(=O)N2CCOc3ccc(-c4ccc(N)nc4)cc3C2)cc1', '>', 20),
  ('CS(=O)(=O)c1ccc(C(=O)N2CCOc3ccc(-c4ccc5nc[nH]c5c4)cc3C2)cc1', '=', 8.1),
  ('CCc1cc(S(C)(=O)=O)ccc1C(=O)N1CCOc2ccc(-c3ccc4nc[nH]c4c3)cc2C1', '>', 20),
  ('Cc1cc(S(C)(=O)=O)ccc1C(=O)N1CCOc2ccc(-c3ccc4nc[nH]c4c3)cc2C1', '=', 9.3),
  ('O=C(c1ccc(C(=O)C(F)(F)F)cc1)N1CCOc2ccc(-c3ccc4nc[nH]c4c3)cc2C1', '=', 4),
  ('O=C(c1ccc(C(F)(F)F)cc1)N1CCOc2ccc(-c3ccc4nc[nH]c4c3)cc2C1', '=', 3.1),
  ('CCS(=O)(=O)c1ccc(C(=O)N2CCOc3ccc(-c4ccc5nc[nH]c5c4)cc3C2)cc1', '=', 3.3),
  ('CNS(=O)(=O)c1ccc(C(=O)N2CCOc3ccc(-c4ccc5nc[nH]c5c4)cc3C2)cc1', '=', 2.3),
  ('CS(=O)(=O)c1ccc(C(=O)N2CCOc3ccc(-c4ccc5nc[nH]c5c4)cc3C2)c(Br)c1', '=', 9.2),
  ('CS(=O)(=O)c1ccc(C(=O)N2CCOc3ccc(-c4ccc5nc[nH]c5c4)cc3C2)c(Cl)c1', '=', 9.2);

----------
measurement_description: Cmax in CD rat at 3 mg/kg, po
Assay type: ADME, organism-based
Design: dose 3 mg/kg, route oral
setup_conditions: in vivo
measured_endpoint: Cmax (nM)

INSERT INTO results (sample_smiles, measured_endpoint, measurement_unit, measurement) VALUES
  ('Cc1c(C(=O)N2CCOc3ccc(-c4ccc(N)nc4)cc3C2)ccc(S(C)(=O)=O)c1F', 'Cmax', 'nM', 707);

----------
measurement_description: Drug uptake in tumor of athymic mouse xenografted with human MCF7 cells at 100 mg/kg, po after 1 hr
Type: ADME, organism-based, Neoplasm
Design: dose 100 mg/kg, route oral
setup_conditions: read-out: Drug uptake
measured_endpoint: concentration at 1 h (µM)

INSERT INTO results (sample_smiles, measured_endpoint, measurement_unit, measurement) VALUES
  ('Cc1c(C(=O)N2CCOc3ccc(-c4ccc(N)nc4)cc3C2)ccc(S(C)(=O)=O)c1F', 'concentration at 1 h', 'µM', 36.1);

----------
measurement_description: AUC (0 to infinity) in athymic nude mouse at 10 mg/kg, po
Type: ADME, organism-based
Parameters: dose 10 mg/kg, route oral, time infinity
setup_conditions: plasma
measured_endpoint: AUC(0-inf)

INSERT INTO measurements (sample_smiles, measurement) VALUES
  ('Cc1c(C(=O)N2CCOc3ccc(-c4ccc(N)nc4)cc3C2)ccc(S(C)(=O)=O)c1F', '2.51 µM·h');

----------
measurement_description: Clearance in cynomolgus monkey at 3 mg/kg, iv
Format: ADME, organism-based, Macaca fascicularis
Parameters: dose 3 mg/kg, route intravenous
setup_conditions: in vivo
measured_endpoint: clearance (mL/min/kg)

INSERT INTO assay_data (sample_smiles, measurement) VALUES
  ('Cc1c(C(=O)N2CCOc3ccc(-c4ccc(N)nc4)cc3C2)ccc(S(C)(=O)=O)c1F', 84.2);

----------
measurement_description: Plasma protein binding in human at 5 uM
Format: ADME, cell-free
setup_conditions: read-out: PPB (converted)
measured_endpoint: fraction unbound at 5 µM

INSERT INTO measurements (sample_smiles, measurement) VALUES
  ('Cc1c(C(=O)N2CCOc3ccc(-c4ccc(N)nc4)cc3C2)ccc(S(C)(=O)=O)c1F', 0.14);

----------
study_system: UniProt:P11712
Sequence (P11712 whole entry): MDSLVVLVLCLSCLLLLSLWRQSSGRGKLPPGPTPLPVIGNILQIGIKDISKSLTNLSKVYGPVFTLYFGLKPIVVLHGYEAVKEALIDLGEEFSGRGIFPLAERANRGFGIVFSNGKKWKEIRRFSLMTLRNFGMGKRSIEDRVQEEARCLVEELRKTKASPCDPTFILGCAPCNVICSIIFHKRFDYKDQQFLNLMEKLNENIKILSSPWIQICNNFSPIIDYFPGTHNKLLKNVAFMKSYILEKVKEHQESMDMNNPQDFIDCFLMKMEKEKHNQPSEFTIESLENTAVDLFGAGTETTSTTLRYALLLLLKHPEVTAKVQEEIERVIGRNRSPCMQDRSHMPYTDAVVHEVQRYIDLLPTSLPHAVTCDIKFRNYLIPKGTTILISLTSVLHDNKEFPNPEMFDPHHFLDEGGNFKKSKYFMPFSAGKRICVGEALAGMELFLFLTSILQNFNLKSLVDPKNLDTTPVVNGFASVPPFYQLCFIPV
measurement_description: Inhibition of CYP2C9 (unknown origin)
Assay type: ADME
Threshold check on INH: strictly below 3 µM is t; on or above 3 µM is f.

INSERT INTO results (sample_smiles, study_system, classification) VALUES
  ('O=C(c1ccc(C(=O)C(F)(F)F)cc1)N1CCOc2ccc(-c3ccc4nc[nH]c4c3)cc2C1', 'UniProt:P11712', 't'),
  ('CCc1cc(S(C)(=O)=O)ccc1C(=O)N1CCOc2ccc(-c3ccc4nc[nH]c4c3)cc2C1', 'UniProt:P11712', 'f'),
  ('CCc1c(C(=O)N2CCOc3ccc(-c4ccc5nc[nH]c5c4)cc3C2)ccc(S(C)(=O)=O)c1F', 'UniProt:P11712', 't'),
  ('Cc1cc(S(C)(=O)=O)ccc1C(=O)N1CCOc2ccc(-c3ccc4nc[nH]c4c3)cc2C1', 'UniProt:P11712', 't'),
  ('NS(=O)(=O)c1ccc(C(=O)N2CCOc3ccc(-c4ccc5nc[nH]c5c4)cc3C2)cc1', 'UniProt:P11712', 't'),
  ('Cc1c(C(=O)N2CCOc3ccc(-c4ccc5nc[nH]c5c4)cc3C2)ccc(S(C)(=O)=O)c1F', 'UniProt:P11712', 'f'),
  ('CS(=O)(=O)c1ccc(C(=O)N2CCOc3ccc(-c4ccc5nc[nH]c5c4)cc3C2)c(Cl)c1', 'UniProt:P11712', 'f'),
  ('CNS(=O)(=O)c1ccc(C(=O)N2CCOc3ccc(-c4ccc5nc[nH]c5c4)cc3C2)cc1', 'UniProt:P11712', 't'),
  ('CCS(=O)(=O)c1ccc(C(=O)N2CCOc3ccc(-c4ccc5nc[nH]c5c4)cc3C2)cc1', 'UniProt:P11712', 't');

----------
# solubility kinetic per record follows
measurement_description: Kinetic solubility of the compound
Type: physicochemical
setup_conditions: read-out: Kinetic_solubility
measured_endpoint: solubility kinetic

INSERT INTO results (sample_smiles, measurement) VALUES
  ('O=C(c1ccc(C(=O)C(F)(F)F)cc1)N1CCOc2ccc(-c3cnc4ccccc4c3)cc2C1', '40.1 µM'),
  ('Cc1c(C(=O)N2CCOc3ccc(-c4ccc(N)nc4)cc3C2)ccc(S(C)(=O)=O)c1F', '232 µM'),
  ('O=C(c1ccc(C(=O)C(F)(F)F)cc1)N1CCOc2ccc(-c3ccc4nc[nH]c4c3)cc2C1', '< 1 µM');

----------
study_system: Phosphatidylinositol 4,5-bisphosphate 3-kinase catalytic subunit alpha isoform (Homo sapiens)
Sequence (P42336 whole entry, canonical isoform): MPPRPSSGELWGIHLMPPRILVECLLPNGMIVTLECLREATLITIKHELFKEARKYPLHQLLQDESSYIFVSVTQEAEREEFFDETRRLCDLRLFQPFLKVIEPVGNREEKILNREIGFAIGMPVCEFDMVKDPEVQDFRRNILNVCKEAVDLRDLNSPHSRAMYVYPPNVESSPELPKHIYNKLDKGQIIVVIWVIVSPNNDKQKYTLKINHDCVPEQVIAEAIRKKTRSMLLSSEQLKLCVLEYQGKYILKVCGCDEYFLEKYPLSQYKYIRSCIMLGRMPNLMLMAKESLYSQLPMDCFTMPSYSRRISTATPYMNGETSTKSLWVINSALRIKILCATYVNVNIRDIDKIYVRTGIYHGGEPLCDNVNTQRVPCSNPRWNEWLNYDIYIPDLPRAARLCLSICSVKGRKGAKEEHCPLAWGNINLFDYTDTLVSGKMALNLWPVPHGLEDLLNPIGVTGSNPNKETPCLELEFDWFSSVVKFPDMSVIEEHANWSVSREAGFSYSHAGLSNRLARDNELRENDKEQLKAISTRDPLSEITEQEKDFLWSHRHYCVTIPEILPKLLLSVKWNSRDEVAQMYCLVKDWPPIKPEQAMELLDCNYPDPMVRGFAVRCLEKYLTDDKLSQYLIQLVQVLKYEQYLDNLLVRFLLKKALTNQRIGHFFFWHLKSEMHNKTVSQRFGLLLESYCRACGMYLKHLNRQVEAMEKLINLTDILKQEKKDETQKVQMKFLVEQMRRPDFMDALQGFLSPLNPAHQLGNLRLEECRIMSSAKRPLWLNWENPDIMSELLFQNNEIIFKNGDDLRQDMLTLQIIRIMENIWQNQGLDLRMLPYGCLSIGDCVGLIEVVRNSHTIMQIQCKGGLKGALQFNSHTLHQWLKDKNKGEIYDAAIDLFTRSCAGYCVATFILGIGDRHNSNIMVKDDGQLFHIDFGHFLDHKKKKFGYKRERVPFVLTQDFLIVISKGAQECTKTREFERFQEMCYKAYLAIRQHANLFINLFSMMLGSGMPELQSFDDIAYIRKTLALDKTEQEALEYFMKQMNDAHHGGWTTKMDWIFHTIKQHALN
measurement_description: Inhibition of PI3Kalpha (unknown origin) using PIP2 as substrate after 2 hrs by luminescence assay
measured_endpoint: IC50 (nM)

INSERT INTO results (sample_smiles, measured_endpoint, operator, measurement) VALUES
  ('O=C(c1ccc(C(=O)C(F)(F)F)cc1)N1CCOc2ccc(-c3cn[nH]c3)cc2C1', 'IC50', '=', 1050),
  ('O=C(c1ccc(C(=O)C(F)(F)F)cc1)N1CCOc2ccc(-c3cnc4ccccc4c3)cc2C1', 'IC50', '=', 398),
  ('O=C(c1ccc(C(=O)C(F)(F)F)cc1)N1CCOc2ccc(-c3ccc4[nH]ncc4c3)cc2C1', 'IC50', '=', 137),
  ('CC(=O)Nc1cccc(-c2ccc3c(c2)CN(C(=O)c2ccc(C(=O)C(F)(F)F)cc2)CCO3)c1', 'IC50', '=', 238),
  ('CCNc1cc(S(C)(=O)=O)ccc1C(=O)N1CCOc2ccc(-c3ccc4nc[nH]c4c3)cc2C1', 'IC50', '>', 3000),
  ('CCc1cc(S(C)(=O)=O)ccc1C(=O)N1CCOc2ccc(-c3ccc4nc[nH]c4c3)cc2C1', 'IC50', '>', 3000),
  ('c1ccc2ncc(-c3ccc4c(c3)CNCCO4)cc2c1', 'IC50', '>', 10000);
